Entry source: ChEMBL document CHEMBL3301361

# Test: physchem
# Assay context: octan-1-ol/water, pH 7.4, LogD7.4
Each record is given T if its reported logD is strictly below 2. Records at or above 2 are given F.

Check if logD falls below 2 for `Clc1ccc(-c2nnc3cccc(Cl)n23)c(Cl)c1` .
F

---

Record form. Attribute: logD. Fill in for each entry.
# Test: physchem
# Assay context: octan-1-ol/water, pH 7.4, LogD7.4
Numbers only.

// lookup logD for `CNC(=O)c1cnn(-c2ccccc2)c1NS(=O)(=O)c1ccc(C)cc1`
-0.54

For the 2 molecules below, give their logD values.
1. C[C@H](Nc1nc(Nc2ncc(C#N)s2)cc(N2CCOCC2)n1)c1ccc(F)cn1
2. C[C@@H](NC1=CC(=O)CCC1)c1ccc(Nc2ncc3cc(-c4ccncc4)ccc3n2)cc1

3.45
3.17

Dear colleague, could you please provide logD for the molecules listed below?
1. Cc1nc(CS(=O)(=O)c2ccc(Cl)cc2)cc(N2CCOCC2)n1
2. COc1ccc(Nc2cc(Nc3ccc(OCC(O)CN(C)C)cc3)ncn2)cc1 (stereo unspecified)
3. O=C(CN1C(=O)C(NC(=O)c2cc3cc(Cl)sc3[nH]2)Cc2ccccc21)NO (stereo unspecified)
4. C[C@H](Nc1nc(Nc2ncc(C#N)s2)cc(N2CCOCC2)n1)c1ncc(F)cn1

1. 1.8
2. 1.5
3. 2.4
4. 2.26

Record logD per entry; entries follow.
1. Nc1nc(-c2ccccc2)nn1Cc1ccccc1
2. CN[C@@H](C)C(=O)N[C@H](C(=O)N[C@H]1CCCN(CCc2ccccc2)C1)C1CCCCC1
3. NC1=NC(c2ccco2)Nc2c(F)ccc(F)c21 (stereo unspecified)
4. CC(NC(=O)C1(N)CCN(c2ncnc3[nH]ccc23)CC1)c1ccccc1 (stereo unspecified)

[1.91, 1.65, 1.2, 2.17]

I need logD for every entry listed below, if you could help.
1. CC(C)Cn1cnc2c(N)nc3ccccc3c21
2. CN1CCN(c2ccc(NC(=O)c3nnc(Nc4ccccc4F)o3)cn2)CC1
3. CN1CCN(c2nc3ccccc3cc2Cn2nc(-c3ccc4nc(N)sc4c3)c3c(N)ncnc32)CC1
4. Cc1ccc(CO)cc1N(C)c1ccnc(Nc2cc(N3CCOCC3)nc(N3CCOCC3)c2)n1
5. Cc1cc(CCCOc2c(Cl)cc(C3=NCCO3)cc2Cl)on1
6. O=C(O)c1ccc(-c2nnn(Cc3ccccc3F)n2)cc1

1. 2.52
2. 2.36
3. 3.09
4. 3.44
5. 3.72
6. 0.3

# batch size: 3; output logD per entry
1. CC(C)Nc1ccc2cnn(-c3cncc(-n4ccc(CC(=O)O)c4)n3)c2c1
2. COc1cc2ncnc(Nc3cc(NC(=O)c4ccnc(N5CCOCC5)c4)ccc3C)c2cc1OCCN1CCCCC1
3. O=C1CN2Cc3c(ccc(Cl)c3Cl)N=C2N1 [ANAGRELIDE]

1. 1.24
2. 3.35
3. 1.86

Report logD for `Cc1ccc(Oc2ccc(Nc3ncnc4cccc(O[C@H](C)C(=O)N5CCOCC5)c34)cc2C)cn1` please.
4.14

---

# Test: in vitro
# Assay context: human, microsomes
Provide the reported log10 microsomal CLint of each item.
Note: values are log10 of microsomal CLint expressed in µL/min/mg.

Some molecules with known log10 microsomal CLint results, for comparison:
What log10 microsomal CLint value was documented for this molecule, NC(=O)N1c2ccccc2C=Cc2ccccc21 [CARBAMAZEPINE] ?
0.85

What value of log10 microsomal CLint has been reported for the following molecule? COc1ccc(N(C(=O)c2occc2Cl)C(C(=O)NC[C@@H](C)O)c2ccccc2F)c(OC)c1 (stereo not given in full)
2.16

For `CC(C)c1nc2ccc(-c3ccc(F)cc3)cc2c(=O)n1C[C@H]1CCCN(C(C)C)C1` , what is its reported log10 microsomal CLint?
1.11

Dear colleague, could you send me log10 microsomal CLint for each of the items below? Thanks.
1. CCN(CC)CCN1C(=O)[C@@](O)(c2ccccc2Cl)c2c1cc(C(N)=O)cc2C(F)(F)F
2. Cc1ccc(C(=O)c2ccc(CC(=O)O)n2C)cc1 [TOLMETIN]
3. Cc1cc(CN(CC(=O)Nc2ccc(Cl)cc2Cl)C2CCCCC2)ccc1OCC(=O)O
4. Nc1ncnc2c1c(COc1cccc(Cl)c1)nn2C1CCOCC1
5. CCC(=O)NC(c1cccs1)c1cc(Cl)c2cccnc2c1O (stereo not given)
6. Cc1cc(OCCCS(C)(=O)=O)cc(C)c1-c1cccc(COc2ccc3c(c2)OC[C@H]3CC(=O)O)c1

1. 1.97
2. 0.60
3. 2.00
4. 1.67
5. 1.33
6. 0.74

Below are some molecules; for each one, tell me its log10 microsomal CLint.
1. N#Cc1cnc(N2CCN(C(=O)[C@@H]3CCCC[C@H]3C(=O)NC3(C#N)CC3)CC2)s1
2. COc1cccc2c1c(NS(=O)(=O)c1ccc(Cl)s1)nn2Cc1cccc(CNC(=O)[C@@H]2COCCN2)c1
3. CS(=O)(=O)c1ccc([C@H](CC2CCCC2)C(=O)Nc2nccs2)cc1
4. O=C(NCC12CC3CC(CC(C3)C1)C2)c1cc(N2CCNCC2)ccc1Cl
5. CC(C)N(CCNCCc1ccc(O)c2[nH]c(=O)sc12)C(=O)CCOCCc1ccccc1

[0.83, 1.61, 1.64, 1.04, 1.78]

---

# Test: physchem
# Assay context: pH 7.4 buffer
Field: solubility thermodynamic. Provide a value for each of the molecules that follow.
Show the value, then the unit it is measured in.

Example results:
Could you tell me which solubility thermodynamic is on file for `CS(=O)(=O)c1cccc(Nc2nccc(Nc3cccc4c3OCC4)n2)c1` ?
44.7 µM

Fill in: solubility thermodynamic of `COc1cc2c(Nc3cc(CC(=O)Nc4cc(F)cc(F)c4)[nH]n3)ncnc2cc1OCCCN1CCC(CO)CC1` is ___
214 µM

Answer for every listed entry: what is its solubility thermodynamic? The entries follow.
1. Cc1cc(C)cc(-c2[nH]c3sc(C(C)(C)C(=O)N4C5CCC4CC5)cc3c2CCN2CCN(CC(=O)N(C)C)CC2)c1
2. COc1ccc(C(=O)C2CCN(C(=O)c3ccco3)CC2)cc1

1. 100 µM
2. 380 µM

---

# Test: physchem
# Assay context: octan-1-ol/water, pH 7.4, LogD7.4
What logD was measured for each of the following?

Previously resolved entries follow.
For `COc1ccc(-c2c(F)ccc3c(N)c(C(=O)NC4CC4)nnc23)c(OC)n1` , what is its reported logD?
3.37

logD lookup needed for CC(C)C(NC(=O)Cn1c(-c2ccccc2)ccc(NS(C)(=O)=O)c1=O)C(=O)C(F)(F)F (stereo unspecified) , thanks.
1.77

For the compound shown here, `Cc1cc2[nH]c(=O)c(O)cc(=O)c2cc1C` , give the reported logD.
1.99

Consider the compound `CNc1cccc(CCOc2ccc(C[C@H](NC(=O)c3c(C)cc(C)cc3C)C(=O)O)cc2)n1` and give its measured logD.
0.52

Field request: logD | item: `COc1ccc(CC(=O)N(C)C2CCN(CCC(c3ccccc3)c3ccccc3)CC2)cc1OC`
3.4

Suppose we examine the compound `Nc1nc(-c2ccc(O)cc2)cc(=O)[nH]1` ; what logD value has been reported?
1.05

Quick request: logD for each listed item, please.
1. C[C@@H]1CCCN1CCc1cc2cc(-c3ccc(C#N)cc3)ccc2o1
2. CC(C)(C)C(=O)Nc1ccc2c(c1)C(=O)C(=O)c1ccccc1-2
3. CN(C)c1nc(Cc2ccc(NC(=O)c3ccc(C(F)(F)F)cc3)cc2)nc(N(C)C)c1CC(=O)O
4. O=[N+]([O-])c1ccc2c(c1)N(c1cccc[n+]1[O-])CC(C(F)F)(C(F)F)O2

1. 3.51
2. 2.83
3. 1.46
4. 3.2

Batch lookup, logD per entry.
1. CCCN1CCN(c2ccc(C(=O)NC3(C(=O)NCC#N)CCCCC3)cc2)CC1
2. CS(=O)(=O)c1cccc(Nc2nccc(Nc3cccc4ncoc34)n2)c1
3. Nc1ccc2cccc(Nc3ncccn3)c2n1

1.33
2.5
2.7

Record logD for all entries; do not skip any.
1. CC(C)COCC(CN(Cc1ccccc1)c1ccccc1)N1CCCC1 (stereo unspecified)
2. CC(=O)Nc1ccc2ccn(-c3cc(NCCCCO)n4ncc(C#N)c4n3)c2c1

1: 3.66; 2: 2.58

Report logD for every entry below.
1. O=C(O)CNCCNc1ccc(Cl)c(C(=O)NCC23CC4CC(CC(C4)C2)C3)c1
2. COc1ccc2ncc(=O)n(CCN3CC[C@H](NCc4ccc5c(n4)NC(=O)CO5)[C@H](O)C3)c2c1
3. NC1(C(=O)N[C@@H](CCN2CCCCC2)c2ccc(Cl)cc2)CCN(c2ncnc3[nH]ccc23)CC1
4. CNC(=O)c1cc(C(=O)c2ccc(Cl)cc2)c(Br)[nH]1
5. CCn1c(=O)ccc2cc(COc3cc(F)cc(C4(OC)CCOCC4)c3)ccc21
6. Cc1ncc([N+](=O)[O-])n1CCO

[1.94, 0.39, 2.4, 3.1, 3.89, -0.11]
